Where these numbers come from: PubChem BioAssay AID504834

# EXPERIMENT DESCRIPTION: Primary qHTS for delayed death inhibitors of the malarial parasite plastid, 96 hour incubation
# CONDITIONS: P. falciparum luciferase reporter growth; series mostly up to 28.7 µM
The campaign covered roughly 320,000 compounds. About 22,000 (6.9%) were called active. Roughly 27% stayed inconclusive and do not appear here. Calls come from the whole dose curve; as a rule, active = well fitted inhibition curve with a large enough effect; inconclusive = small, poorly fitted or top-dose-only effect, or another doubt; inactive = no such curve, though single readings can be large or run the other way. The full list was thinned out, with actives kept by preference.
Outcome codes: active, inactive

> print(dat)
                                    molecule     class
 1  O=C(COc1ccccc1)Nc1ccc(N2CCN(C(=O)c3cccs3)CC2)cc1  inactive
 2  CCCC(C)C(=O)NCc1ccncc1 (stereo unspecified)  inactive
 3  CCn1ncc(C2=NOC(C(=O)N3CCN(c4ccccc4)CC3)C2)c1C (stereo unspecified)  inactive
 4      O=C(O)CN1CCN(C(c2ccccc2)c2ccccc2)CC1  inactive
 5               Oc1ccc(Br)cc1/C=N/Nc1ccccn1  inactive
 6      O=[N+]([O-])c1ccc(N/N=C/c2ccccc2)cc1  inactive
 7  COc1ccc(CN2CCCC(N3CCc4ccccc4C3)C2)c(O)c1 (stereo unspecified)    active
 8  CN1C(C(=O)NCC2CC2)CC2Cn3c(nc4ccccc43)C21 (stereo unspecified)  inactive
 9  COc1ccc(CNC(=O)C2CCN(C(=O)c3ccccc3)CC2)cc1  inactive
10           COC(=O)c1ccccc1NC(=O)CSc1ccccn1    active
11  CCN1C(=O)c2cccc3c(S(=O)(=O)Nc4ccccc4O)ccc1c23  inactive
12  COc1cccc(N2C(=O)CC(N3CCc4ccccc4C3)C2=O)c1 (stereo unspecified)  inactive
13  CN1CCN(Cc2nc3cc(NC(=O)COc4ccc([N+](=O)[O-])cc4)ccc3n2C)CC1  inactive
14  CN(C)c1ccc(C2Nc3ccccc3C(=O)N2NS(=O)(=O)c2ccccc2)cc1 (stereo unspecified)  inactive
15  CCN(CC(=O)Nc1c(F)cccc1F)C(=O)CN1c2cccc3cccc(c23)S1(=O)=O  inactive
16  COc1ccccc1CNS(=O)(=O)c1c(C)[nH]c(C)c1C(=O)N1CCCCC1  inactive
17  CCN(c1ccccc1)S(=O)(=O)c1cc2c(cc1C)n(C)c(=O)c(=O)n2C  inactive
18  CNC[C@H](CC1CCCCC1)NC[C@H](NCCC1CCCC1)[C@H](C)O    active
19       O=S(=O)(c1ccc(Br)c2ccccc12)N1CCOCC1  inactive
20  O=C(c1ccco1)N1CCN(C(=O)C2CC(c3ccc(F)cc3)=NO2)CC1 (stereo unspecified)    active
21         CCS(=O)(=O)N1CCN(C(=O)c2cccs2)CC1    active
22           COC(=O)c1ccccc1NC(=O)CSc1nnnn1C  inactive
23  COc1ccccc1CN1CCN(Cc2cc(OC)c(OC)cc2OC)CC1  inactive
24      NC(N)=Nc1nc(-c2ccccc2)c2cc(Cl)ccc2n1  inactive
25     Cc1cccc(NC(=O)NC(=S)NC(=O)c2ccccc2)c1  inactive
26  COc1ccccc1CN1CCN(C(c2ccccc2)c2ccccc2)CC1    active
27  COc1ccc(-n2nc3c(N4CCC(C(=O)NCc5ccccc5)CC4)nnc(C)c3c2C)cc1    active
28  Cc1cnc(C(=O)N2CCCC(N3CCN(c4ccccc4F)CC3)C2)cn1 (stereo unspecified)  inactive
29       Clc1ccc2nc3c(c(-c4ccccc4)c2c1)CNCC3    active
30  O=[N+]([O-])c1ccccc1/C=C/CN1CCCC(CO)C1 (stereo unspecified)  inactive
31  CC(C)C(=O)N1c2ccccc2NC2=C(C(=O)CCC2)C1c1ccc(N(C)C)cc1 (stereo unspecified)    active
32  O=C(c1ccco1)N1CCN(C(=O)C2CC(c3ccc(Cl)c(Cl)c3)=NO2)CC1 (stereo unspecified)    active
33           COc1cc(N2C(=O)CSC2=S)cc(OC)c1OC  inactive
34  Cc1ccc(S(=O)(=O)N(C)C)cc1NC(=O)C(C)OC(=O)c1ccc2ccccc2n1 (stereo unspecified)  inactive
35        COc1ccc(N2CCN(C(=O)c3cccs3)CC2)cc1    active
36             CC(C)(C)NC(=O)C(=O)NCc1ccncc1    active
37  Cc1ccc(Cn2ccc(NC(=O)c3cc(C(C)C)on3)n2)cc1  inactive
38             O=C(NCc1ccncc1)C(=O)NCc1ccco1  inactive
39  COc1cccc(NC(=O)N2CCC(NC(=O)C(Cc3cccc(C)c3)NC(C)=O)CC2)c1 (stereo unspecified)  inactive
40  Cc1ccc(C(=O)NCC(=O)OCC(=O)NC2CCCCCCC2)cc1  inactive
41       O=C(c1cccs1)N1CCN(C(=O)N2CCOCC2)CC1  inactive
42    Cc1ccc(OCC(=O)Nc2ccc3oc(=O)ccc3c2)cc1C  inactive
43  O=C(c1ccco1)N1CCN(C(=O)c2ccc(COc3ccc(F)cc3)o2)CC1  inactive
44  O=C(c1ccc2c(c1)OCO2)N1CCN(C(=O)c2ccco2)CC1  inactive
45  O=C(NCC(=O)N1CCC2(CC1)NCCc1[nH]cnc12)c1ccc(Br)cc1  inactive
46            CCNC(=S)N1CCN(C(=O)c2ccco2)CC1  inactive
